Where do the numbers come from? From PubChem BioAssay (NCI).

method notes: NCI Yeast Anticancer Drug Screen. Data for the CLN2oe strain (AID 163);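 note: 0% = growth of vehicle-only control cultures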
condition info: S. cerevisiae CLN2oe strain, at 3.7 µM, hits give high values
About 79,000 compounds went through this panel and 15% of them were active in at least one assay; those are over-represented in the sample as a whole. Active and inactive are the calls of the source. Cut-off read from the data, not from the text of the source: active = growth inhibition above about 70%; inactive = the rest.
For each entry below, report its growth inhibition value.

Consider the following illustrative entries.
Prompt: What growth inhibition value was documented for this molecule, CSC(=S)Nc1cc(C)ccn1 ?
Response: 3% (inactive)

Prompt: Entry S=C(Nc1ccc(Cl)c(Cl)c1)SCc1ccc2c(c1)OCO2 please
Response: -13% (inactive)

Prompt: Entry N/C(=N\OC(=O)NC(Cl)=C(Cl)Cl)c1cc(C(F)(F)F)cc(C(F)(F)F)c1 please
Response: 11% (inactive)

Prompt: Entry Oc1c(Br)cc(Br)cc1C1CCCCC1 please
Response: 13% (inactive)

Prompt: Entry BrCC[P+](c1ccccc1)(c1ccccc1)c1ccccc1 please
Response: -22% (inactive)

Further cases:
Prompt: What growth inhibition value was documented for this molecule, CCCN(CCC)CC(O)c1cc(-c2ccc(Cl)cc2)nc2c(C)c(Cl)ccc12 (stereo unspecified) ?
Response: -3% (inactive)

* * *

For each entry below, report its growth inhibition value.
method notes: NCI Yeast Anticancer Drug Screen. Data for the rad50 strain (AID 155);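 note: 0% = growth of vehicle-only cultures of the same strain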
condition info: S. cerevisiae rad50 strain growth inhibition; at 1.2 µM; hits give high values
This is part of a sample that, as a whole, favours compounds with a hit. Of some 79,000 tested, about 15% had one in any assay.
Answers are plain numbers, in %.

Consider the following illustrative entries.
Prompt: What growth inhibition value was documented for this compound, C(CCSC1=NCCN1)CSC1=NCCN1 (tested in a mixture with another compound) ?
Response: 21

Prompt: Entry COC1C=COC2(C)Oc3c(C)c(O)c4c(c3C2=O)/C(=N/C2CCC(O)OC2C)C=C(NC(=O)/C(C)=C\C(=O)C2CC2C(O)C(C)C(O)C(C)C(OC(C)=O)C1C)C4=O (stereo not drawn) please
Response: -2

Prompt: Entry O=C(O)c1ccccc1-c1ccccc1C(=O)Nc1ccc2c(c1)Cc1ccccc1-2 please
Response: 6

Prompt: Entry COc1cc(C2SCC(=O)N2c2ccc(-c3ccc(-n4c(-c5ccccc5)nc5ccccc5c4=O)cc3)cc2)cc(OC)c1OC (stereo not drawn) please
Response: -2

Prompt: Entry CCC(C)COC(=O)c1ccc(N=Cc2ccc(C=Nc3ccc(C(=O)OCC(C)CC)cc3)cc2)cc1 (stereo not drawn) please
Response: -2

Prompt: Entry COc1ccccc1/C=C1\Sc2scc(-c3cccc([N+](=O)[O-])c3)[n+]2C1=O please
Response: 47

Prompt: Entry Cc1c(C(=O)C(=O)c2ccccc2)c(C)c(C(=O)C(=O)c2ccccc2)c(C)c1C(=O)C(=O)c1ccccc1 please
Response: -11

# context switch: different compound, same growth inhibition
Prompt: What growth inhibition value was documented for this compound, N#CN1C2CCC1CC(=O)C2 ?
Response: 3

* * *

method notes: NCI Yeast Anticancer Drug Screen. Data for the rad50 strain (AID 155);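 note: 0% = growth of vehicle-only cultures of the same strain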
condition info: S. cerevisiae rad50 strain growth inhibition; at 5.0 µM (retest, dose inferred, filed as 0.5)
This is part of a sample that, as a whole, favours compounds with a hit. Of some 79,000 tested, about 15% had one in any assay. Activity calls are given as the source filed them. Rule as the data show it: active = growth inhibition above about 70%; inactive = the rest.
// classify into active, inactive

Prompt: Entry [N-]=[N+]=NC1=C(c2ccccn2)C(=O)c2cccc3cccc1c23 : call = ?
Response: inactive
